Origin of the recorded values: ChEMBL document CHEMBL1201862

Reported GI50 values are given for each entry in this list.
- Test system: CAKI-1
- measurement.description: NCI tumour cell line growth inhibition, 48 h
Active and inactive are the calls of the source. Cut-off read from the data, not from the text of the source: active = GI50 up to about 1.1 µM and inactive = higher.

The examples below pair each entry with its known result.
**Q:** Please report the recorded GI50 for O=C1c2cc3c(cc2CC12Cc1ccc4c(c1C2=O)CCC4)CCC3 (stereo unspecified) .
**A:** > 100 µM (inactive)

**Q:** Please report the recorded GI50 for "Cc1ccc2c(C(=O)c3c(C)n(CCN4CCOCC4)c4ccccc34)cccc2c1" .
**A:** 25.1 µM (inactive)

Next:
**Q:** Please report the recorded GI50 for CC1(C)C2CC3C4CC5(Nc6ccccc6C5N41)[C@]3(C)CC2=O (stereo partly specified) .
**A:** > 50 µM (inactive)

**Q:** Please report the recorded GI50 for "O=C1O[C@H](c2ccc3c(c2)OCO3)[C@H]2CO[C@@H](c3ccc4c(c3)OCO4)[C@@H]12" .
**A:** 77.8 µM (inactive)

**Q:** Please report the recorded GI50 for "[N-]=[N+]=N[C@H]1C[C@@H](CO)O[C@H]1n1cnc2c(N)ncnc21" .
**A:** > 100 µM (inactive)

**Q:** Please report the recorded GI50 for COc1cc(CC(C)N)ccc1O (stereo unspecified) .
**A:** > 100 µM (inactive)

**Q:** Please report the recorded GI50 for Nc1ncnc2c1ncn2C1C=C(CO)C(O)C1O (stereo unspecified) .
**A:** 13.1 µM (inactive)

**Q:** Please report the recorded GI50 for "COC(=O)CCCC1(CCCC(=O)OC)CCCCCCCCC(CCCC(=O)OC)(CCCC(=O)OC)C(=O)C1=O" .
**A:** 9.84 µM (inactive)

**Q:** Please report the recorded GI50 for CCCCCCCCC/C=C1\CC(CO)(COC(=O)c2ccccc2)OC1=O (stereo unspecified) .
**A:** 19.4 µM (inactive)

**Q:** Please report the recorded GI50 for "C[C@@H](C(=O)O)c1ccc(-c2ccccc2)c(F)c1" .
**A:** > 100 µM (inactive)

**Q:** Please report the recorded GI50 for "Cc1ccc(Nc2ncnc3sc(SCc4ccccc4)nc23)cc1" .
**A:** 26 µM (inactive)
